src = patent US20060178374A1

# measured-target: HGFR (c-Met) (Homo sapiens, UniProt P08581)
# Sequence (P08581 974-1390): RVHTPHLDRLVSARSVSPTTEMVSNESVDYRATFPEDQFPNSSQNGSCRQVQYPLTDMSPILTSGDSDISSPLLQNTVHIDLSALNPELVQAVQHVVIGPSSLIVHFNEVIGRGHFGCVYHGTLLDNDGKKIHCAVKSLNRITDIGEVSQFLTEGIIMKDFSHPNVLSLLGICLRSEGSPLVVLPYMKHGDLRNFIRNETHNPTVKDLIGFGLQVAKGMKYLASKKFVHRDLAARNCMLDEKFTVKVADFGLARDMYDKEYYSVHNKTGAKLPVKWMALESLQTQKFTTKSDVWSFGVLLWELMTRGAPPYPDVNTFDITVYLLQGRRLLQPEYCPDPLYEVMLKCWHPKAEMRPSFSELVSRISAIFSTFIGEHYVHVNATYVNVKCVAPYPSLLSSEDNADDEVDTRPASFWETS
# protocol-text: HGFR Continuous-Coupled Spectrophotometric Assay
# Assay type: biochemical
# protocol-conditions: compound at 1 μM
This listing pairs compounds with measured inhibition at 1 µM.
Answer with a number only, understood to be in %.

CC(Oc1cc(-c2ccc(C(=O)NCC3CCNC3)cc2)cnc1N)c1c(Cl)ccc(F)c1Cl (centres unmarked)
85
CNCCCNC(=O)c1ccc(-c2cnc(N)c(OC(C)c3c(Cl)ccc(F)c3Cl)c2)cc1 (centres unmarked)
89
CC(Oc1cc(-c2ccc(C(=O)N3CC4CNCC4C3)cc2)cnc1N)c1c(Cl)ccc(F)c1Cl (centres unmarked)
93
CC(Oc1cc(-c2ccc(C(=O)NCCN)cc2)cnc1N)c1c(Cl)ccc(F)c1Cl (centres unmarked)
90

Problem: Request the reported inhibition at 1 µM associated with CC(Oc1cc(-c2ccc(C(=O)N3CC[N@]4C[C@H]3C4)cc2)cnc1N)c1c(Cl)ccc(F)c1Cl (some centres unmarked)
Solution: 94

Problem: Request the reported inhibition at 1 µM associated with CCN(CCO)C(=O)c1ccc(-c2cnc(N)c(OC(C)c3c(Cl)ccc(F)c3Cl)c2)cc1 (centres unmarked)
Solution: 94

Problem: Request the reported inhibition at 1 µM associated with CC(Oc1cc(-c2ccc(C(=O)N(C)CCC#N)cc2)cnc1N)c1c(Cl)ccc(F)c1Cl (centres unmarked)
Solution: 95

Problem: Request the reported inhibition at 1 µM associated with CC(Oc1cc(-c2ccc(C(=O)N3CCN(C4CCN(C)CC4)CC3)cc2)cnc1N)c1c(Cl)ccc(F)c1Cl (centres unmarked)
Solution: 96

###

Heads up, these compounds all have Ki values measured for HGFR (c-Met) (Homo sapiens, UniProt P08581).
Answer with a number only, understood to be in nM.

These solved cases illustrate the format of a correct answer.
CCOC(=O)c1[nH]c(C)c(-c2cnc(N)c(OC(C)c3c(Cl)ccc(F)c3Cl)c2)c1C (stereo not shown)
2090
CCN(CC)CCC(=O)NCc1cccc(-c2cnc(N)c(OC(C)c3c(Cl)ccc(F)c3Cl)c2)c1 (stereo not shown)
68.1
COc1cc(-c2cnc(N)c(OC(C)c3c(Cl)ccc(F)c3Cl)c2)ccc1OCCN1CCCC1 (stereo not shown)
28

Problem: GET /values?readout=Ki&system=HGFR (c-Met) (Homo sapiens, UniProt P08581)&item= CC(Oc1cc(-c2ccc(CC#N)cc2)cnc1N)c1c(Cl)ccc(F)c1Cl (stereo not shown)
Solution: 92

###

# measured-target: HGFR (c-Met) (Homo sapiens, UniProt P08581)
measured-endpoint: pKi
Hey, just a heads up that pKi is the negative log base 10 of the concentration in molar.

These solved cases illustrate the format of a correct answer.
C[C@@H](Oc1nc(-c2ccc(C(=O)O)cc2)cnc1N)c1c(Cl)ccc(F)c1Cl
6.81
CC(Oc1cc(-c2ccc(NC(=O)C3CCNCC3)nc2)cnc1N)c1c(Cl)ccc(F)c1Cl (stereo not shown)
6.79
CC(Oc1cc(-c2cn(CCN3CCOCC3)cn2)cnc1N)c1c(Cl)ccc(F)c1Cl (stereo not shown)
6.81

Now for the compound whose pKi we want.
Problem: GET /values?readout=pKi&system=HGFR (c-Met) (Homo sapiens, UniProt P08581)&item= CC(Oc1cc(-c2ccc(N3CCOCC3)nc2)cnc1N)c1c(Cl)ccc(F)c1Cl (stereo not shown)
Solution: 7.14
